Each record here notes measured activity at 2 µg/mL.
# Tested on: P. falciparum 3D7 parasites
# Assay explanation: P. falciparum growth inhibition assay, 1-cycle (72 h treatment), SYBR DNA staining (library screen at 2 μg/mL and dose-response)
# Type: cell-based, Plasmodium falciparum
# Experimental parameters: Plasmodium falciparum, 3D7; P. falciparum, 72 h, screen at 2 μg/mL, replicate 2; read-out: Pf_72h_%Growth_Rep2

Compound	Tested target	activity at 2 µg/mL [%]
COc1ccc2c3c4n(c2c1)[C@H](C=C(C)C)OOC(C)(C)C[C@@H]4N1C(=O)[C@@H]2CCCN2C(=O)[C@]1(O)[C@H]3O	P. falciparum 3D7 parasites	88.5
CC[C@H]1OC(=O)[C@H](C)[C@@H](O[C@H]2C[C@@](C)(OC)[C@@H](O)[C@H](C)O2)[C@H](C)[C@@H](O[C@@H]2O[C@H](C)C[C@H](N(C)C)[C@H]2O)[C@](C)(OC)C[C@@H](C)C(=O)[C@H](C)[C@@H](O)[C@]1(C)O	P. falciparum 3D7 parasites	62.6
CC[C@H]1OC(=O)C[C@@H](O)[C@H](C)[C@@H](O[C@@H]2O[C@H](C)[C@@H](O[C@H]3C[C@@](C)(O)[C@@H](O)[C@H](C)O3)[C@H](N(C)C)[C@H]2O)[C@@H](CC=O)C[C@@H](C)C(=O)/C=C/C(C)=C/[C@@H]1CO[C@@H]1O[C@H](C)[C@@H](O)[C@@H](OC)[C@H]1OC [Tylosin, reference compound]	P. falciparum 3D7 parasites	38.7
CCC[C@H]1CC2=C(C[C@@H](CC)CC3=C1C(=O)OC3=O)C(=O)OC2=O	P. falciparum 3D7 parasites	83.3
CC(=O)c1c(O)c(C)c(O)c2c1OC1=CC(=O)C(C(C)=O)C(=O)C12C (centres unmarked)	P. falciparum 3D7 parasites	126

---

Item-by-item account of Pf_120h_%Growth_Rep1
# Test system: P. falciparum 3D7 parasites
# Assay explanation: P. falciparum growth inhibition assay, 2-cycle (120 h treatment), delayed-death screen and dose-response
# Assay type: cell-based, Plasmodium falciparum
# Experimental parameters: P. falciparum 3D7, 120 h, library screen at 2 μg/mL, % growth, replicate 1
Measurement kind: Pf_120h_%Growth_Rep1 (%)

Molecule	Endpoint result
CCCCCCCCCCCCCCCC(=O)NC1CCOC1=O (stereo not shown)	95.21
CCCC(=O)OC1C(C)OC(OC2C(C)OC(OC3C(CC=O)CC(C)C(O)C=CC=CCC(C)OC(=O)CC(O)C3OC)C(O)C2N(C)C)CC1(C)O (stereo not shown)	3.21
CCCCCC(=O)OC1C(C)OC(OC2C(C)OC(OC3C(CC=O)CC(C)C(O)C=CC=CCC(C)OC(=O)CC(O)C3OC)C(O)C2N(C)C)CC1(C)O (stereo not shown)	2.62
O=c1cc2ccocc-2o1	89.46

---

# System: P. falciparum 3D7 parasites
# Assay explanation: P. falciparum growth inhibition assay, 2-cycle (120 h treatment), delayed-death screen and dose-response
# Format: cell-based, Plasmodium falciparum
# Experimental parameters: library screen at 2 μg/mL, 120 h, % growth, replicate 2

Compound	Pf_120h_%Growth_Rep2 / %
COc1cc([C@H]2[C@@]3(O)[C@H](O)[C@H]4C[C@]2(O)[C@](O)(C(=O)O4)[C@H]3C(=O)c2ccccc2)oc(=O)c1	114.14
CC1=CC[C@H]2C(C)(C)CCC[C@]2(C)[C@H]1CO	93.83
CC[C@H]1OC(=O)[C@H](C)[C@@H](O[C@H]2C[C@@](C)(OC)[C@@H](O)[C@H](C)O2)[C@H](C)[C@@H](O[C@@H]2O[C@H](C)C[C@H](N(C)C)[C@H]2O)[C@@]2(C)C[C@@H](C)[C@@]3(O[C@@]1(C)[C@H](O)[C@H]3C)O2 [Anhydroerythromycin A]	85.54
